Test system: PBMCs
Assay: Cytotoxicity (TC50) in PBMCs
Assay type: cell-based
Details: isolate BR/92/025, subtype C; read-out: TC 50 (the source's name)
Reported metric: CC50

                                   molecule     result
0  CCCCCCCCCCCCCCCCOCCCOP(=O)(O)CO[C@H](C)Cn1cnc2c(N)ncnc21 [CMX157]  > 1000 nM

---

Test system: HIV
Test: microbe, parasite or virus in culture
Type: cell-based
Conditions: PANEL 6, 6 TAMs + 184
Reported metric: IC50 Fold Change

>>> print(df.to_string())
                                   compound   reported_metric  qualifier  recorded_number
0  Nc1nc(NC2CC2)c2ncn([C@H]3C=C[C@@H](CO)C3)c2n1 [ABC, abacavir]  IC50 Fold Change          =             7.91
1  Cc1cn([C@H]2C=C[C@@H](CO)O2)c(=O)[nH]c1=O [d4T, 2′,3′-didehydro-3′-deoxythymidine]  IC50 Fold Change          =             2.28
2  C[C@H](Cn1cnc2c(N)ncnc21)OCP(=O)(O)O [TFV, (R)-9-(2-phosphonylmethoxypropyl)adenine]  IC50 Fold Change          =             2.16
3  OC[C@@H]1CC[C@H](n2cnc3c(O)ncnc32)O1 [ddI, 2′,3′-dideoxyinosine]  IC50 Fold Change          =             2.06
4  Nc1nc(=O)n(C2CSC(CO)O2)cc1F (centres unmarked) [FTC]  IC50 Fold Change          >          87.6048

---

System: PBMCs
Assay: Cytotoxicity (TC50) in PBMCs
Assay type: cell-based
Conditions: isolate CMU06, subtype E; read-out: TC 50 (the source's name)
Reported metric: CC50

In [3]: df
Out[3]:
                                   molecule  result
0  CCCCCCCCCCCCCCCCOCCCOP(=O)(O)CO[C@H](C)Cn1cnc2c(N)ncnc21 [CMX157]  > 1 µM

---

Tested on: HIV
Assay: microbe, parasite or virus in culture
Assay type: cell-based
Details: PANEL 3, 6 TAMs, no 184
Strictly below 4 in IC50 Fold Change: True. Otherwise: False.

>>> print(df.to_string())
                                   compound  category
0  Nc1nc(NC2CC2)c2ncn([C@H]3C=C[C@@H](CO)C3)c2n1     False
1      OC[C@@H]1CC[C@H](n2cnc3c(O)ncnc32)O1      True
2  Nc1nc(=O)n(C2CSC(CO)O2)cc1F (centres unmarked)     False
3  Cc1cn([C@H]2C=C[C@@H](CO)O2)c(=O)[nH]c1=O [d4T, 2′,3′-didehydro-3′-deoxythymidine]      True
4  C[C@H](Cn1cnc2c(N)ncnc21)OCP(=O)(O)O [TFV, (R)-9-(2-phosphonylmethoxypropyl)adenine]      True

---

Test system: PBMCs
Experiment: Cytotoxicity (TC50) in PBMCs
Assay type: cell-based
Conditions: isolate RW/92/009, subtype A; read-out: TC 50 (the source's name)
Reported metric: CC50

>>> print(df.to_string())
                                chem_smiles  reported_metric  result
0  CCCCCCCCCCCCCCCCOCCCOP(=O)(O)CO[C@H](C)Cn1cnc2c(N)ncnc21             CC50  > 1 µM

---

Test system: HIV
Assay: microbe, parasite or virus in culture
Assay type: cell-based
Conditions: PANEL 14, 65R, no 184
Label True when IC50 Fold Change is strictly below 2; otherwise label False.

                                   compound  category
0      OC[C@@H]1CC[C@H](n2cnc3c(O)ncnc32)O1      True
1  Cc1cn([C@H]2C=C[C@@H](CO)O2)c(=O)[nH]c1=O [d4T, 2′,3′-didehydro-3′-deoxythymidine]      True
2  C[C@H](Cn1cnc2c(N)ncnc21)OCP(=O)(O)O [TFV, (R)-9-(2-phosphonylmethoxypropyl)adenine]      True
3  Nc1nc(=O)n(C2CSC(CO)O2)cc1F (centres unmarked)     False
4  Nc1nc(NC2CC2)c2ncn([C@H]3C=C[C@@H](CO)C3)c2n1     False

---

Test: Cytotoxicity (TC50) in PBMCs
Format: cell-based
Settings: PBMCs; HIV-2 isolate CDC310319
Reported metric: CC50

>>> df
                                chem_smiles  reported_metric     result
0  CCCCCCCCCCCCCCCCOCCCOP(=O)(O)CO[C@H](C)Cn1cnc2c(N)ncnc21             CC50  > 1000 nM

---

System: HIV
Test: microbe, parasite or virus in culture
Type: cell-based
Conditions: PANEL 38, M41L + L210W + T215Y
Reported metric: IC50 Fold Change

                                   molecule  tested_system   reported_metric  recorded_number
0      OC[C@@H]1CC[C@H](n2cnc3c(O)ncnc32)O1            HIV  IC50 Fold Change             1.36
1  Nc1nc(=O)n(C2CSC(CO)O2)cc1F (centres unmarked)            HIV  IC50 Fold Change             3.70
2  Cc1cn([C@H]2C=C[C@@H](CO)O2)c(=O)[nH]c1=O [d4T, 2′,3′-didehydro-3′-deoxythymidine]            HIV  IC50 Fold Change             2.06
3  Nc1nc(NC2CC2)c2ncn([C@H]3C=C[C@@H](CO)C3)c2n1            HIV  IC50 Fold Change             2.80
4  C[C@H](Cn1cnc2c(N)ncnc21)OCP(=O)(O)O [TFV, (R)-9-(2-phosphonylmethoxypropyl)adenine]            HIV  IC50 Fold Change             2.80

---

Test system: PBMCs
Experiment: Cytotoxicity (TC50) in PBMCs
Assay type: cell-based
Conditions: isolate BCF01, subtype O; read-out: TC 50 (the source's name)
Reported metric: CC50

In [3]: df
Out[3]:
                                chem_smiles  result
0  CCCCCCCCCCCCCCCCOCCCOP(=O)(O)CO[C@H](C)Cn1cnc2c(N)ncnc21  > 1 µM

---

Test system: PBMCs
Test: Cytotoxicity (TC50) in PBMCs
Format: cell-based
Conditions: isolate BR/92/014, subtype B; read-out: TC 50 (the source's name)
Reported metric: CC50

>>> df
                                chem_smiles  reported_metric  result
0  CCCCCCCCCCCCCCCCOCCCOP(=O)(O)CO[C@H](C)Cn1cnc2c(N)ncnc21             CC50  > 1 µM

---

Tested on: PBMCs
Assay: Cytotoxicity (TC50) in PBMCs
Format: cell-based
Conditions: isolate UG/92/046, subtype D; read-out: TC 50 (the source's name)
Reported metric: CC50

>>> df
                                chem_smiles  reported_metric     result
0  CCCCCCCCCCCCCCCCOCCCOP(=O)(O)CO[C@H](C)Cn1cnc2c(N)ncnc21             CC50  > 1000 nM

---

Test: Toxicokinetics and 7-day toxicity after oral administration of CMX157 to rats
Type: in vivo
Details: rat plasma, oral CMX157 30 mg/kg, day 7; read-out: AUC0-24
Reported metric: AUC(0-t)

                                   molecule  reported_metric        result
0  CCCCCCCCCCCCCCCCOCCCOP(=O)(O)CO[C@H](C)Cn1cnc2c(N)ncnc21 [CMX157]         AUC(0-t)  1540 ng·h/mL

---

Tested on: PBMCs
Assay: Cytotoxicity (TC50) in PBMCs
Type: cell-based
Conditions: isolate IN/93/101, subtype C; read-out: TC 50 (the source's name)
Reported metric: CC50

                                   compound  reported_metric     result
0  CCCCCCCCCCCCCCCCOCCCOP(=O)(O)CO[C@H](C)Cn1cnc2c(N)ncnc21 [CMX157]             CC50  > 1000 nM

---

Assay: Cytotoxicity (TC50) in PBMCs
Format: cell-based
Settings: human, PBMCs; isolate ADA, subtype B; read-out: TC 50 (the source's name)
Reported metric: CC50

                                   molecule  reported_metric     result
0  CCCCCCCCCCCCCCCCOCCCOP(=O)(O)CO[C@H](C)Cn1cnc2c(N)ncnc21 [CMX157]             CC50  > 1000 nM
